# Tested on: isoproterenol antagonism concerning myocardial contractile force and heart rate in isolated guinea-pig atria
# assay-protocol: isoproterenol antagonism in isolated guinea-pig atria
# condition-parameters: activity of Propranolol is 1
Measured Inhibition of increase in myocardial contractile force, relative activity values are reported for all entries that follow.

molecule="CC(=O)c1cc2cccc(OCC(O)CNC(C)(C)C)c2o1 (stereo not shown) [Compound No. 4]" experimental_value=2.5

QUERY: Which Inhibition of increase in myocardial contractile force, relative activity value is on record for CCOC(=O)c1cc2cccc(OCC(O)CNC(C)C)c2o1 (stereo not shown) [compound 5] ?
RESULT: 1.8

QUERY: Which Inhibition of increase in myocardial contractile force, relative activity value is on record for CCC(C)NCC(O)COc1cccc2cc(C(C)=O)oc12 (stereo not shown) [Compound No. 7] ?
RESULT: 2.0

QUERY: Which Inhibition of increase in myocardial contractile force, relative activity value is on record for CC(=NC(C)C)c1cc2c(OCC(O)CNC(C)C)cccc2o1 (stereo not shown) [Compound No. 6] ?
RESULT: 1.3

QUERY: Which Inhibition of increase in myocardial contractile force, relative activity value is on record for CC(=O)c1cc2cccc(OCC(O)CNC(C)C)c2o1 (stereo not shown) [Compound No. 3] ?
RESULT: 2.0

QUERY: Which Inhibition of increase in myocardial contractile force, relative activity value is on record for CCC(C)N=C(C)c1cc2c(OCC(O)CNC(C)CC)cccc2o1 (stereo not shown) [Compound No. 10] ?
RESULT: 1.7

QUERY: Which Inhibition of increase in myocardial contractile force, relative activity value is on record for CCc1cc2c(C(C)=O)ccc(OCC(O)CNC(C)C)c2o1 (stereo not shown) [Compound No. 8] ?
RESULT: 1.1

====

# assay-protocol: in vivo
# condition-parameters: mouse, iv
Measured LD50 at 24 h values are reported for all entries that follow.

These solved cases illustrate the format of a correct answer.
compound="CCOC(=O)c1cc2cccc(OCC(O)CNC(C)C)c2o1 (stereo not drawn)" experimental_value="50 to 55 mg/kg"
compound="CCC(C)N=C(C)c1cc2cccc(OCC(O)CNC(C)CC)c2o1 (stereo not drawn)" experimental_value="75 to 80 mg/kg"

Shifting focus to the compound that follows.
QUERY: Which LD50 at 24 h value is on record for CC(=O)c1cc2cccc(OCC(O)CNC(C)(C)C)c2o1 (stereo not drawn) ?
RESULT: 45 to 55 mg/kg

====

# Tested on: isoproterenol antagonism concerning myocardial contractile force and heart rate in isolated guinea-pig atria
# assay-protocol: isoproterenol antagonism in isolated guinea-pig atria
# condition-parameters: activity of Propranolol is 1
readout-label: Inhibition of increase in myocardial contractile force, relative activity

These solved cases illustrate the format of a correct answer.
compound="CC(=O)c1cc2c(OCC(O)CNC(C)(C)C)cccc2o1 (stereo not drawn) [Compound No. 2]" experimental_value=0.6
compound="CCC(C)N=C(C)c1cc2cccc(OCC(O)CNC(C)CC)c2o1 (stereo not drawn) [Compound No. 9]" experimental_value=2.5

QUERY: Which Inhibition of increase in myocardial contractile force, relative activity value is on record for CC(=NC(C)C)c1cc2cccc(OCC(O)CNC(C)C)c2o1 (stereo not drawn) [Compound No. 1] ?
RESULT: 5.9
